experiment: Pharmacokinetic study in dog; type: in vivo, dogs; conditions: plasma, PK study (IV 0.5 mg/kg, oral 2 mg/kg), read-out: T1/2, terminal half-life (converted)
For each record, write down the corresponding half-life.
Write the answer as a number in h, unit excluded.

Problem: Please look up its half-life: CCC[C@H](c1ccc(C(=O)NCCC(=O)O)cc1)[C@H](c1ccc(OC(F)(F)F)cc1)c1c[nH]c2c(F)cc(Cl)cc12
Result: 16

Problem: Any idea what its half-life is? The compound is CCC[C@H](c1ccc(C(=O)NCCC(=O)O)cc1)[C@H](c1ccc(Cl)cc1)c1c[nH]c2c(F)cc(C)cc12 [MK3577, reference compound]
Result: 4.9

---

experiment: Pharmacokinetic study in rat; type: in vivo, rats; conditions: plasma, IV 1 mg/kg, read-out: Vdss, volume of distribution at steady state
measured metric: Vd (L/kg)
Value expressed in L/kg; do not type the unit.

Problem: Requested field: Vd. Item: CCC[C@H](c1ccc(C(=O)NCCC(=O)O)cc1)[C@H](c1ccc(OC(F)(F)F)cc1)c1c[nH]c2c(F)cc(Cl)cc12 [Example 1]
Result: 3.2

---

assay: Pharmacokinetic study in rat; format: in vivo, rats; conditions: plasma, oral 2 mg/kg vs IV 1 mg/kg, read-out: F, oral bioavailability
measured metric: bioavailability

Problem: // query bioavailability value for entry CCC[C@H](c1ccc(C(=O)NCCC(=O)O)cc1)[C@H](c1ccc(OC(F)(F)F)cc1)c1c[nH]c2c(F)cc(Cl)cc12
Result: 76%

---

test: Pharmacokinetic study in mouse; format: in vivo, hGCGR mice; conditions: hGCGR, plasma, IV 1 mg/kg, read-out: Vdss, volume of distribution at steady state
measured metric: Vd (L/kg)
Supply the numeric figure in L/kg, leaving out any unit text.

Problem: Returns the measured Vd for the input compound. Input: CCC[C@H](c1ccc(C(=O)NCCC(=O)O)cc1)[C@H](c1ccc(OC(F)(F)F)cc1)c1c[nH]c2c(F)cc(Cl)cc12
Result: 2.2

---

assay: Pharmacokinetic study in rat; format: in vivo, rats; conditions: plasma, PK study (IV 1 mg/kg, oral 2 mg/kg), read-out: MRT, mean residence time
measured metric: MRT

Problem: So what does the record say about MRT for CCC[C@H](c1ccc(C(=O)NCCC(=O)O)cc1)[C@H](c1ccc(OC(F)(F)F)cc1)c1c[nH]c2c(F)cc(Cl)cc12 ?
Result: 2.9 h

Problem: Please report the recorded MRT for CCC[C@H](c1ccc(C(=O)NCCC(=O)O)cc1)[C@H](c1ccc(Cl)cc1)c1c[nH]c2c(F)cc(C)cc12 [MK3577, reference compound] .
Result: 0.9 h

---

experiment: Pharmacokinetic study in rhesus monkey; type: in vivo, rhesus monkeys; conditions: rhesus monkey, plasma, IV 0.5 mg/kg, read-out: Vdss, volume of distribution at steady state
measured metric: Vd (L/kg)
Give your result in L/kg as a bare value.

Problem: Quick one: Vd of CCC[C@H](c1ccc(C(=O)NCCC(=O)O)cc1)[C@H](c1ccc(OC(F)(F)F)cc1)c1c[nH]c2c(F)cc(Cl)cc12 [Example 1] ?
Result: 2

---

test: Pharmacokinetic study in dog; type: in vivo, dogs; settings: plasma, IV 0.5 mg/kg, read-out: Vdss, volume of distribution at steady state
measured metric: Vd (L/kg)
Field format: number, assumed L/kg, no unit text.

Problem: Which Vd value belongs to CCC[C@H](c1ccc(C(=O)NCCC(=O)O)cc1)[C@H](c1ccc(OC(F)(F)F)cc1)c1c[nH]c2c(F)cc(Cl)cc12 [Example 1] ?
Result: 0.72

---

experiment: Pharmacokinetic study in rat; type: in vivo, rats; details: plasma, PK study (IV 1 mg/kg, oral 2 mg/kg), read-out: T1/2, terminal half-life (converted)
Kindly state half-life for each of the entries shown.
Quick note: give the figure in h, leave out the unit.

Problem: Which half-life reading was recorded for the compound CCC[C@H](c1ccc(C(=O)NCCC(=O)O)cc1)[C@H](c1ccc(Cl)cc1)c1c[nH]c2c(F)cc(C)cc12 [MK3577, reference compound] ?
Result: 1.4

Problem: Which value of half-life has been reported for CCC[C@H](c1ccc(C(=O)NCCC(=O)O)cc1)[C@H](c1ccc(OC(F)(F)F)cc1)c1c[nH]c2c(F)cc(Cl)cc12 in the records?
Result: 2.2

---

experiment: Pharmacokinetic study in mouse; format: in vivo, hGCGR mice; settings: hGCGR, plasma, IV 1 mg/kg, read-out: Clp, plasma clearance
measured metric: clearance (mL/min/kg)
Give the value in mL/min/kg but do not write mL/min/kg after it.

Problem: Please give the measured clearance for this compound: CCC[C@H](c1ccc(C(=O)NCCC(=O)O)cc1)[C@H](c1ccc(OC(F)(F)F)cc1)c1c[nH]c2c(F)cc(Cl)cc12
Result: 3.5

---

Assay: Pharmacokinetic study in dog
Assay type: in vivo, dogs
Conditions: plasma, PK study (IV 0.5 mg/kg, oral 2 mg/kg), read-out: MRT, mean residence time
Procedure: Intravenous (IV) PK studies were conducted at a dose of 1 mg/kg in hGCGR mice and rats and 0.5 mg/kg in dogs and rhesus monkeys. The IV doses were formulated in ethanol:PEG400:water (20:30:50 v/v/v). […] Plasma was prepared for analysis by protein precipitation with acetonitrile. Plasma concentrations were determined by LC-MS/MS using ABI Sciex API 4000 or 5000 mass spectrometers operated in atmospheric pressure chemical ionization mode with multiple-reaction monitoring. […]
Give MRT for every item shown.
Report the figure in h without appending any unit label.

Problem: So what's the measured MRT for this one? CCC[C@H](c1ccc(C(=O)NCCC(=O)O)cc1)[C@H](c1ccc(Cl)cc1)c1c[nH]c2c(F)cc(C)cc12 [MK3577, reference compound]
Result: 5.2

Problem: Reported MRT, molecule CCC[C@H](c1ccc(C(=O)NCCC(=O)O)cc1)[C@H](c1ccc(OC(F)(F)F)cc1)c1c[nH]c2c(F)cc(Cl)cc12 [Example 1] : ____
Result: 20

---

Test: Pharmacokinetic study in rhesus monkey
Format: in vivo, rhesus monkeys
Settings: rhesus monkey, plasma, oral 2 mg/kg vs IV 0.5 mg/kg, read-out: F, oral bioavailability
Method: Intravenous (IV) PK studies were conducted at a dose of 1 mg/kg in hGCGR mice and rats and 0.5 mg/kg in dogs and rhesus monkeys. The IV doses were formulated in ethanol:PEG400:water (20:30:50 v/v/v). […] Plasma was prepared for analysis by protein precipitation with acetonitrile. Plasma concentrations were determined by LC-MS/MS using ABI Sciex API 4000 or 5000 mass spectrometers operated in atmospheric pressure chemical ionization mode with multiple-reaction monitoring. […]
measured metric: bioavailability (%)
Quick reminder: number only, in %, skip the unit.

Problem: Which bioavailability is listed for CCC[C@H](c1ccc(C(=O)NCCC(=O)O)cc1)[C@H](c1ccc(OC(F)(F)F)cc1)c1c[nH]c2c(F)cc(Cl)cc12 [Example 1] ?
Result: 47

---

assay: Pharmacokinetic study in dog; format: in vivo, dogs; conditions: plasma, IV 0.5 mg/kg, read-out: Clp, plasma clearance
measured metric: clearance (mL/min/kg)
The figure you give is taken to be in mL/min/kg; do not add the unit.

Problem: Which clearance value belongs to CCC[C@H](c1ccc(C(=O)NCCC(=O)O)cc1)[C@H](c1ccc(OC(F)(F)F)cc1)c1c[nH]c2c(F)cc(Cl)cc12 [Example 1] ?
Result: 0.63

---

So I've got a bunch of compounds here, and I need their half-life values.
assay: Pharmacokinetic study in rhesus monkey; format: in vivo, rhesus monkeys; settings: rhesus monkey, plasma, PK study (IV 0.5 mg/kg, oral 2 mg/kg), read-out: T1/2, terminal half-life (converted)
Quick reminder: number only, in h, skip the unit.

Problem: Can you share its half-life? I mean this compound: CCC[C@H](c1ccc(C(=O)NCCC(=O)O)cc1)[C@H](c1ccc(OC(F)(F)F)cc1)c1c[nH]c2c(F)cc(Cl)cc12 [Example 1]
Result: 11

Problem: Return reported half-life; argument: CCC[C@H](c1ccc(C(=O)NCCC(=O)O)cc1)[C@H](c1ccc(Cl)cc1)c1c[nH]c2c(F)cc(C)cc12 [MK3577, reference compound]
Result: 5.1

---

target: human glucagon receptor (Homo sapiens); construct: expressed in transfected cells; host or cells: CHO cells; experiment: Inhibition of glucagon-stimulated intracellular cAMP formation; type: cell-based; settings: CHO cells expressing human glucagon receptor; glucagon 250 pM
Sequence (P47871 26-477): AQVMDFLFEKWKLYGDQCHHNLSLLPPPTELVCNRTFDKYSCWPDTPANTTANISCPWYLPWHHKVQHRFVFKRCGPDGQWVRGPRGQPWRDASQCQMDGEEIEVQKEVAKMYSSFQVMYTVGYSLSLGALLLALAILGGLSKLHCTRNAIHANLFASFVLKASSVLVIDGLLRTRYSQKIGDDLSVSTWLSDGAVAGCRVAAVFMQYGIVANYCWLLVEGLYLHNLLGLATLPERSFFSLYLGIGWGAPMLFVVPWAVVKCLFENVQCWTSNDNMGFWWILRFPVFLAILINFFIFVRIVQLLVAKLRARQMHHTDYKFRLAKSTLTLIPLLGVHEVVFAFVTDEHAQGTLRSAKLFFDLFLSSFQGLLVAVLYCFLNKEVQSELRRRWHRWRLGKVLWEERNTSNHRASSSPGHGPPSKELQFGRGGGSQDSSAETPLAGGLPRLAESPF
measured metric: pIC50
Notebook: values listed as pIC50 are -log10 of the concentration (mol/L).

Problem: Suppose we examine the molecule CCC[C@H](c1ccc(C(=O)NCCC(=O)O)cc1)[C@H](c1ccc(OC(F)(F)F)cc1)c1c[nH]c2c(F)cc(Cl)cc12 ; what pIC50 value has been reported?
Result: 7.72

---

assay: Pharmacokinetic study in rat; assay type: in vivo, rats; settings: plasma, IV 1 mg/kg, read-out: Clp, plasma clearance
measured metric: clearance (mL/min/kg)
Please state the figure in mL/min/kg; there is no need to write the unit.

Problem: Recorded clearance for CCC[C@H](c1ccc(C(=O)NCCC(=O)O)cc1)[C@H](c1ccc(OC(F)(F)F)cc1)c1c[nH]c2c(F)cc(Cl)cc12 , please?
Result: 18
